# STUDY SYSTEM: recombinant human NK3 receptor (Homo sapiens, UniProt P29371)
# Construct: expressed in transfected cells; host or cells: HEK293 cells, transient expression; membranes
# Sequence (P29371 whole entry): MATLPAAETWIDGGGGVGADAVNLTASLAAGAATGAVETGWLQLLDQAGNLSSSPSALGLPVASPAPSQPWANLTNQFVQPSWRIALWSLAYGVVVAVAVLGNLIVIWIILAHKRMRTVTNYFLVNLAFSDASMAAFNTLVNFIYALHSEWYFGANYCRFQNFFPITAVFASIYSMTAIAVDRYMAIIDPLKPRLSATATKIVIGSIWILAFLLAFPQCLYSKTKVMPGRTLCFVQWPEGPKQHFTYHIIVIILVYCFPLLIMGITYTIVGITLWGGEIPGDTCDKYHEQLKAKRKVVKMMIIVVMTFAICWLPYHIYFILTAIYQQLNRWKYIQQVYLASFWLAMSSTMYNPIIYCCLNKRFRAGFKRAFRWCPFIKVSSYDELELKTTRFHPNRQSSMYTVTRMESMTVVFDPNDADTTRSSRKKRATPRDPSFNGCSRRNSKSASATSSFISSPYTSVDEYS
# PROTOCOL NOTES: [3H]SR142801 competition binding assay
pKi: −log10 of the molar value.
Label rule, in plain words: pKi of 8 and up is Met, under 8 is Not met.

MOLECULE | ASSIGNED CLASS
CN(C(=O)Oc1ccc(F)cc1)[C@H]1CN(C(=O)C2CCN(C(=O)C3(C)CC3)CC2)C[C@H]1c1ccc(Cl)c(Cl)c1 (racemic) | Met
CN(C(=O)Oc1ccc(F)cc1)[C@H]1CN(C(=O)C2CCNCC2)C[C@@H]1c1ccc(Cl)c(Cl)c1 (racemic) | Not met
CN(C(=O)Oc1ccc(F)cc1)[C@H]1CN(C(=O)C2CCN(c3ccc(C#N)cn3)CC2)C[C@@H]1c1ccc(F)cc1 | Not met
CN(C(=O)OCC1CCC(F)(F)CC1)[C@H]1CN(C(=O)C2CCN(C(=O)C3(C)CC3)CC2)C[C@@H]1c1ccc(Cl)c(Cl)c1 (racemic) | Met
Cc1ccc(N2CCC(C(=O)N3C[C@@H](N(C)C(=O)Oc4ccc(F)cc4)[C@H](c4ccc(Cl)cc4)C3)CC2)nc1 | Met
CN(C(=O)Oc1ccc(F)cc1)[C@@H]1CN(C(=O)C2CCN(c3ncc(C#N)cn3)CC2)C[C@H]1c1ccc(Cl)cc1 | Met
CN(C(=O)Oc1cccc(Cl)n1)[C@@H]1CN(C(=O)C2CCN(C(=O)C3(C)CC3)CC2)C[C@H]1c1ccc(Cl)c(Cl)c1 | Met
COCC(=O)N1CCC(C(=O)N2C[C@H](c3ccc(Cl)c(Cl)c3)[C@@H](N(C)C(=O)Oc3ccc(F)cc3)C2)CC1 (racemic) | Met
CN(C(=O)Oc1ccc(F)cc1)[C@H]1CN(C(=O)C2CCN(C(=O)C3CC3)CC2)C[C@@H]1c1ccc(Cl)c(Cl)c1 (racemic) | Met
CN(C(=O)Oc1ccc(F)cc1)[C@@H]1CN(C(=O)C2CCN(c3ccc(C#N)nn3)CC2)C[C@H]1c1ccc(Cl)cc1 | Met
